Molecular target: Dickkopf-related protein 1 (Homo sapiens) (UniProt O94907)
Sequence (O94907 whole entry, looked up): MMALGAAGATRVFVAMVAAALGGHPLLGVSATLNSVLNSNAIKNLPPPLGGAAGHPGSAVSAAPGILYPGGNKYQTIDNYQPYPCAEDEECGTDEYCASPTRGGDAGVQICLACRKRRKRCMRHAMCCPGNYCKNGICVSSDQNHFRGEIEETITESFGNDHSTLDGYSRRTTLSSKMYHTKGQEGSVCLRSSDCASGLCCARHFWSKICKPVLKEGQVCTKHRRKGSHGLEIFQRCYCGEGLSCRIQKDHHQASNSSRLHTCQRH
Test: small molecules binding DKK1 protein – biochemical, small-molecule microarray, 635 nm fluorescence scan, primary screen (AID 1106);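 further: score merges emission near 667 nm with signal to noise over three replicate slides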
Details: higher = more signal
The reader will find reported composite z-score values listed item by item below.
Reply briefly: the number, and no unit.

Below, 4 compounds whose answers are already recorded.
INSERT INTO assay_data (compound, value_reported) VALUES
  ('CC(C)(C)OC(=O)CC[C@@]1(C(=O)NCC(O)CO)N=C(c2ccc(OCCCO)cc2)O[C@@H]1c1ccccc1 (some centres not stated)', -0.693),
  ('C=C(/C(=C/C[C@@H](OC(=O)c1ccncc1)c1ccc(CO)o1)c1cc(C(=O)OC)ccc1OC)C(C)C', 0.432),
  ('CC(C)NC(=O)[C@@H]1c2ccccc2C(=O)N(C2CCCCC2)[C@H]1c1ccc(CO)cc1', -0.161),
  ('COC(=O)[C@@]1(Cc2ccc(F)cc2)[C@H]2c3cc(C(=O)N4CCCC4)n(Cc4ccc(Cl)c(C(F)(F)F)c4)c3C[C@H]2CN1C(=O)c1ccccc1', -0.652);

In: Consider the compound CC(=O)n1cc(C(O)C2C=CC3C(=O)N(c4ccccc4)C(=O)C3N2Nc2ccc(C#N)cc2)c2ccccc21 (configuration not stated) and give its measured composite z-score.
Out: -0.817

In: // repeat for O=C1O[C@H](c2ccccc2)[C@H](c2ccccc2)N2[C@H]1[C@@H](C(=O)NC[C@H](O)c1ccccc1)[C@]1(C(=O)Nc3ccc(C#CC4(O)CCCCCC4)cc31)[C@H]2c1ccccc1OCCO and report
Out: 0.178

In: Next compound up: C=C[C@@H](C)[C@@H](OC(=O)Nc1ccc(OC)cc1)c1ccc(O)c2ccccc12
Out: 0.475

---

Tested on: Sam68 (KHDRBS1)
Experiment: compounds binding KHDRBS1 protein – biochemical, small-molecule microarray, 635 nm fluorescence, primary screen (AID 1125);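 further: score merges 667 nm channel intensity with signal to noise over triplicate slides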
Details: higher = more signal
observable: composite z-score
Lab note: jot the number down without any unit.

In: Entry under review: COCCOC(=O)N1C(=O)[C@@]2(c3cc(C#CCCO)ccc31)[C@H](C(=O)NC[C@H](O)c1ccccc1)[C@H]1C(=O)O[C@H](c3ccccc3)[C@H](c3ccccc3)N1[C@@H]2c1ccc(OCCO)cc1 . Reported composite z-score?
Out: 1.3

In: Same question for C=CCC(OC(C)=O)[C@@H]1[C@@H](N(Cc2cc3ccccc3o2)C(=O)c2cccc3ccccc23)c2cc(OCCCO)ccc2N1C(=O)Cc1ccc2ccccc2c1 (stereo not given in full) please.
Out: -0.301

---

Experiment: viability profiling in MM1S myeloma cells – cell-based, resazurin fluorescence, basal, 24 h, PK04 Diversity Set, profiling panel (AID 1174);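 further: MM1S multiple myeloma cell line; test concentration not given here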
Details: higher = more signal, called active from +8 up or from −8 down
// FALSE strictly below -0.5 in z-score; TRUE otherwise

Use the examples below as a reference point.
INSERT INTO measurements (compound, classification) VALUES
  ('CCOC(=O)C[C@H]1[C@H](OC(=O)c2ccccc2-c2ccccc2)[C@@H](NC(=O)c2ccc(-c3ccccc3)cc2)c2cc(OCCCO)ccc2N1C(=O)c1ccccc1', 'TRUE'),
  ('COc1cc2c(cc1O)C(c1ccc(CN3CCCC3)cc1)N(Cc1sc3ccccc3c1Cl)CC2 (centres undefined)', 'FALSE'),
  ('COc1ccc([Si](C)(C)[C@H]2[C@H](CC(=O)N3CCC[C@H]3CO)O[C@@]3(C(=O)N(Cc4cccc(N5CCC5=O)c4)c4ccccc43)[C@@H]2C)cc1', 'FALSE'),
  ('[N-]=[N+]=NCc1ccccc1[C@@H]1OC(c2ccc(OCCCO)cc2)=N[C@]1(Cc1ccccc1N=[N+]=[N-])C(N)=O', 'FALSE'),
  ('CCCC[C@H]1OB(O)C[C@H]2C1=C(COc1ccccc1)C[C@H]1C(=O)N(Cc3ccccc3)C(=O)[C@H]12', 'TRUE');

In: For this compound, is measured z-score -0.5 or higher? CN1C(=O)C2C=CC(C(O)C3=C[C@H]4C[C@@H](C3)C4(C)C)N(Nc3ccc([N+](=O)[O-])cc3[N+](=O)[O-])C2C1=O (some centres undefined)
Out: FALSE

In: Also O=C1O[C@H](c2ccccc2)[C@H](c2ccccc2)N2[C@H]1[C@@H](C(=O)N1CCCCCCC1)[C@]1(C(=O)Nc3ccc(C#CC4=CCCCC4)cc31)[C@H]2c1ccc(O)cc1 , if possible.
Out: FALSE

In: Now consider CCCCCCC#C[Si](O[C@H](c1ccccc1)c1cn([C@H](C)c2ccccc2)nn1)(C(C)C)C(C)C and answer again.
Out: TRUE

Hey, just so you know, these numbers are from PubChem BioAssay.
